# key: entry, value: inhibition at 0.05 µM
assayTarget: FGF-R1 intracellular kinase domain (Homo sapiens, UniProt P11362, C488A/C584S/L457V)
Construct: starting from the endogenous methionine residue 456 to glutamate 766; made in house; host or cells: baculovirus vector expression system
Sequence (P11362 456-766 L457V/C488A/C584S): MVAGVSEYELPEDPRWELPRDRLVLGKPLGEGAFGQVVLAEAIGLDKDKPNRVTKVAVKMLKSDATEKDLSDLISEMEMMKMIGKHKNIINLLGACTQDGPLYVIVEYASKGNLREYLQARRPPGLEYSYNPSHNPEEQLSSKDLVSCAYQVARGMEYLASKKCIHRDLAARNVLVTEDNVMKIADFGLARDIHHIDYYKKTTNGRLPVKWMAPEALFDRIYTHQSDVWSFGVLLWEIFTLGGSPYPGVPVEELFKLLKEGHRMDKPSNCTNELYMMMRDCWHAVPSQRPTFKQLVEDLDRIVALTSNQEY
procedureSummary: FGF-R spectrophotometric assay
Assay type: biochemical
testConditions: 50 nM test compound; read-out: FGF-P (% inh @ 50 nM)

# count of solved cases: 6
{"columns": ["compound", "inhibition at 0.05 µM"],
 "data": [
  ["Cc1cc(NC(=O)Cc2ccc(Oc3ccnc4cc(C(=O)N5CCC5)sc34)cc2Cl)nn1C", "0 to 5%"],
  ["Cc1cc(C)nc(NC(=O)Cc2ccc(Oc3ccnc4cc(C(=O)N(C)C)sc34)cc2)c1", "5 to 10%"],
  ["O=C(Cc1ccc(Oc2ccnc3cc(C(=O)N4CCC4)sc23)cc1)Nc1ccc(F)cn1", "0 to 5%"],
  ["Cc1cc(C)nc(NC(=O)Cc2ccc(Oc3ccnc4cc(C(=O)N5CC[C@@H](N(C)C)C5)sc34)cc2)c1", "5 to 10%"],
  ["O=C(Cc1ccc(Oc2ccnc3cc(C(=O)N4CCC4)sc23)cc1)Nc1cc2ccccc2cn1", "0 to 5%"],
  ["Cc1cc(NC(=O)Cc2ccc(Oc3ccnc4cc(C(=O)N5CCC5)sc34)cc2Cl)on1", "0 to 5%"]
]}

Inquiry: Which inhibition at 0.05 µM is reported for this compound? CNC(=O)C(OC)c1ccc(Oc2ccnc3cc(C(=O)N4CC[C@@H](O)C4)sc23)cc1Cl (some centres unmarked)
Reply text: 5 to 10%

Inquiry: Returns the measured inhibition at 0.05 µM for the input compound. Input: `CN(C)C(=O)c1cc2nccc(Oc3ccc(CC(=O)Nc4ccc(Cl)cn4)cc3)c2s1`
Reply text: 0 to 5%

Inquiry: # lookup: inhibition at 0.05 µM of `Cc1cc(C)nc(NC(=O)Cc2ccc(Oc3ccnc4cc(-c5nccn5C)sc34)cc2)c1`
Reply text: 5 to 10%

Inquiry: inhibition at 0.05 µM for `CNC(=O)Cc1ccc(Oc2ccnc3cc(C(=O)N4CC[C@@H](O)C4)sc23)cc1` ?
Reply text: 0 to 5%

Inquiry: Name the recorded inhibition at 0.05 µM for `COc1ccc2c(Oc3ccc(CC(=O)Nc4ccc(Cl)cn4)cc3)ccnc2c1` .
Reply text: 0 to 5%
